- Tested on: KRAS^G12V-NSCLC H2444 cell line
- Test summary: Ex vivo Edu proliferation test (MI, GI %), H2444
- Format: cell-based
- Details: Table 3; 4 days; uM: osimertinib 0.5, afatinib 0.2, trametinib 0.02, TAK-733 0.18, palbociclib 0.15, ribociclib 5
We begin with a simple list: items and their reported MI 4 (Maximum Inhibition Index), H2444.
Just the number.

Study these solved cases before continuing.
                               entry_smiles  recorded_result
0  CN(C)C/C=C/C(=O)Nc1cc2c(Nc3ccc(F)c(Cl)c3)ncnc2cc1O[C@H]1CCOC1             1.80
1  CC(=O)c1c(C)c2cnc(Nc3ccc(N4CCNCC4)cn3)nc2n(C2CCCC2)c1=O             2.47
2  Cn1c(=O)c(F)c(Nc2ccc(I)cc2F)c2c(=O)n(C[C@@H](O)CO)cnc21           100.76
3  CN(C)C(=O)c1cc2cnc(Nc3ccc(N4CCNCC4)cn3)nc2n1C1CCCC1             3.93
4  C=CC(=O)Nc1cc(Nc2nccc(-c3cn(C)c4ccccc34)n2)c(OC)cc1N(C)CCN(C)C             2.99

// next entry
Provide the documented MI 4 (Maximum Inhibition Index), H2444 with KRAS^G12V-NSCLC H2444 cell line as the system for `CC(=O)Nc1cccc(-n2c(=O)n(C3CC3)c(=O)c3c(Nc4ccc(I)cc4F)n(C)c(=O)c(C)c32)c1` 7.82

---

- Test system: KRAS^G12V-NSCLC H2444 cell line
- Test summary: Ex vivo Edu proliferation test (MI, GI %), H2444
- Assay type: cell-based
- Details: Table 3; 4 days; uM: osimertinib 0.5, afatinib 0.2, trametinib 0.02, TAK-733 0.18, palbociclib 0.15, ribociclib 5
- Protocol: For ex vivo drug testing, the cells were exposed to a combination of drugs or single drugs for 4 days or 7 days. […] The incorporated Edu was detected by Click-iT reaction where fixed cells were incubated with a reaction mixture containing 1× Click-iT Edu reaction buffer, CuSO4, and azide-conjugated Alexa Fluor dye in the dark. […] For image acquisition and analysis, the stained tumor cells were imaged by a high-content screening (HCS) platform (Thermo Scientific CellomicsArrayScanXTi HCS reader). […]
Param label: returns Yes when GI % (Growth Inhibition Rate), H2444 < 90%, returns No otherwise, including exact equality.

Here are 2 compounds together with their reported answers.
>>> df
                                   compound  assigned_label
0  C=CC(=O)Nc1cc(Nc2nccc(-c3cn(C)c4ccccc34)n2)c(OC)cc1N(C)CCN(C)C [Osimertinib, osimertinib]             Yes
1  CN(C)C(=O)c1cc2cnc(Nc3ccc(N4CCNCC4)cn3)nc2n1C1CCCC1 [Ribociclib, ribociclib]             Yes

Please state whether GI % (Growth Inhibition Rate), H2444 is below 90% for Cn1c(=O)c(F)c(Nc2ccc(I)cc2F)c2c(=O)n(C[C@@H](O)CO)cnc21 [TAK-733] No

Please state whether GI % (Growth Inhibition Rate), H2444 is below 90% for CC(=O)Nc1cccc(-n2c(=O)n(C3CC3)c(=O)c3c(Nc4ccc(I)cc4F)n(C)c(=O)c(C)c32)c1 [Trametinib, trametinib] Yes

Please state whether GI % (Growth Inhibition Rate), H2444 is below 90% for CC(=O)c1c(C)c2cnc(Nc3ccc(N4CCNCC4)cn3)nc2n(C2CCCC2)c1=O [Palbociclib, palbociclib] Yes

Please state whether GI % (Growth Inhibition Rate), H2444 is below 90% for CN(C)C/C=C/C(=O)Nc1cc2c(Nc3ccc(F)c(Cl)c3)ncnc2cc1O[C@H]1CCOC1 [Afatinib, afatinib] Yes
